From: patent US12466818B2

RUN DESCRIPTION: Assay 5: skin S9 half-life stability assay
Type: in vitro ADME
EXPERIMENTAL CONDITIONS: skin S9 fraction, pH 7.4; human skin S9, 1 μM test compound, NADPH
READOUT NAME: half-life at 1 μM

For reference, reported half-life at 1 μM for `CC(=O)c1sc(Nc2ccc(I)cc2F)c(C(=O)NOCCO)c1C` stands at ≥ 6.67 h

###

RUN DESCRIPTION: Assay 6: liver microsomes half-life stability assay
Type: in vitro ADME
EXPERIMENTAL CONDITIONS: pH 7.4; human liver microsomes, 1 μM test compound, NADPH
READOUT NAME: half-life at 1 μM

For reference, reported half-life at 1 μM for `CC(=O)c1sc(Nc2ccc(I)cc2F)c(C(=O)NOCCO)c1C` stands at ≤ 50 min

Next, consider the following compound.
For reference, reported half-life at 1 μM for `O=C1CCCc2c1sc(Nc1ccc(I)cc1F)c2C(=O)NOCCO` stands at ≤ 50 min
